Tested on: MUTU-1 Burkitt lymphoma cell line (EBV+)
assayOverview: cells
experimentalContext: Mutu-1, 24 h, read-out: MUTU-1 Cell Viability % 10 μM, 10 μM, 24 h
measure: viability at 10 µM (%)
Just the number please, in %, no unit attached.

Memo: CC/C(=C\C12c3ccccc3C(Cl)(c3ccccc31)C1C(=O)NC(=O)C12)[N+](=O)[O-] (stereo not shown) [Compound 13l] , reported viability at 10 µM: 88.3

Memo: CC(=O)Oc1cccc(N2C(=O)C3C4c5ccccc5C(/C=C/[N+](=O)[O-])(c5ccccc54)C3C2=O)c1 (stereo not shown) [Compound 16m] , reported viability at 10 µM: 1.2

Memo: O=C1C2C3c4ccccc4C(/C=N/O)(c4ccccc43)C2C(=O)N1c1ccccc1 (stereo not shown) [Compound 23k] , reported viability at 10 µM: 83.9

Memo: C/C(=C\C12c3ccccc3C(c3ccccc31)C1C(=O)NC(=O)C12)[N+](=O)[O-] (stereo not shown) [Compound 13h] , reported viability at 10 µM: 82.6

====

Tested on: MUTU-1 Burkitt lymphoma cell line (EBV+)
assayOverview: cells
experimentalContext: Mutu-1, 24 h, read-out: MUTU-1 Cell Viability % 10 μM, 10 μM, 24 h
measure: viability at 10 µM (%)
Just the number please, in %, no unit attached.

Memo: CCC(=CC12c3ccccc3C(c3ccccc31)c1ccccc12)[N+](=O)[O-] [Compound 20c] , reported viability at 10 µM: 102

Memo: C/C(=C\C12c3ccccc3C(c3ccccc31)C1C(=O)OC(=O)C12)[N+](=O)[O-] (centres unmarked) [Compound 13b] , reported viability at 10 µM: 7.2

Memo: O=C1OC(=O)C2C1C1c3ccccc3C2(CC[N+](=O)[O-])c2ccccc21 (centres unmarked) [Compound 14a] , reported viability at 10 µM: 99.3

Memo: COc1cc(CN2C(=O)C3C4c5ccccc5C(/C=C(\C)[N+](=O)[O-])(c5ccccc54)C3C2=O)cc(OC)c1OC (centres unmarked) [Compound 17l] , reported viability at 10 µM: 77.3

Memo: O=C1C2C3c4ccccc4C(/C=C/[N+](=O)[O-])(c4ccccc43)C2C(=O)N1CO (centres unmarked) [Compound 13n] , reported viability at 10 µM: 1.8

Memo: CC/C(=C\C12c3ccccc3C(c3ccccc31)C1C(=O)N(c3ccc(OC)cc3)C(=O)C12)[N+](=O)[O-] (centres unmarked) [Compound 17f] , reported viability at 10 µM: 84.5

Memo: CN1C(=O)C2C3c4ccccc4C(/C=C/[N+](=O)[O-])(c4ccccc43)C2C1=O (centres unmarked) [Compound 13m] , reported viability at 10 µM: 7.4

====

System: MUTU-1 Burkitt lymphoma cell line (EBV+)
experimentalContext: 1 and 10 μM, 24 h
Please go through the items and note down their cell viability in MUTU-I cell line (1 and 10 μM together or concentration not stated).

Memo: O=C1OC(=O)C2C1C1c3ccccc3C2(/C=C/[N+](=O)[O-])c2ccccc21 (stereo not shown) [Compound 13a] , reported cell viability in MUTU-I cell line (1 and 10 μM together or concentration not stated): 7–24%

Memo: O=C1NC(=O)C2C1C1(Cl)c3ccccc3C2(C=C[N+](=O)[O-])c2ccccc21 (stereo not shown) [Compound 13j] , reported cell viability in MUTU-I cell line (1 and 10 μM together or concentration not stated): 0.4–13.5%

Memo: C/C(=C\C12c3ccccc3C(c3ccccc31)C1C(=O)OC(=O)C12)[N+](=O)[O-] (stereo not shown) [Compound 13b] , reported cell viability in MUTU-I cell line (1 and 10 μM together or concentration not stated): 7–24%

Memo: O=C1C2C(C(=O)N1c1ccccc1)C1(/C=C/[N+](=O)[O-])c3ccccc3C2(Cl)c2ccccc21 (stereo not shown) [Compound 16d] , reported cell viability in MUTU-I cell line (1 and 10 μM together or concentration not stated): 0.4–13.5%

Memo: O=[N+]([O-])/C=C/C12c3ccccc3C(c3ccccc31)c1ccccc12 [Compound 20a] , reported cell viability in MUTU-I cell line (1 and 10 μM together or concentration not stated): < 6%

Memo: O=[N+]([O-])C=CC12c3ccccc3C(Cl)(c3ccccc31)c1ccccc12 [Compound 20d] , reported cell viability in MUTU-I cell line (1 and 10 μM together or concentration not stated): < 6%
